B1: HESX1 (parent)
chain: HVPNPPSGISFPSVVDHPMPEERA

# Variants of: B1
# assay_procedure: protein stability index of a GFP-peptide fusion (GPS, HEK-293T) (PSI 1-6); higher = more stable;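 note: lentivirally expressed fusions sorted by FACS into six bins by GFP to DsRed ratio, PSI derived from sequencing read proportions per bin multiplied by bin number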
# assay_conditions: c terminus: a fixed tail appended
In this section, each of the variants is paired with its reported protein stability index.
Form field (numeric): enter value without unit.

{"columns": ["change", "protein stability index"],
 "data": [
  ["A24L", 2.32],
  ["P20M", 2.79],
  ["P5D", 3.96],
  ["S13D", 3.94],
  ["S7F", 2.15],
  ["D16Q", 2.51]
]}

Please report the recorded protein stability index for E21A . 2.49

Consider next the variant R23K in the same way. 2.77

Consider next the variant A24K in the same way. 2.63

Consider next the variant N4A in the same way. 1.65

Consider next the variant E22C in the same way. 2.15

Consider next the variant E21Q in the same way. 2.33

Consider next the variant I9R in the same way. 2.67

Consider next the variant P5N in the same way. 3.03

Consider next the variant I9H in the same way. 3.24

Consider next the variant R23E in the same way. 2.76
